This collection of values is drawn from patent US20210220345A1.

Assay: clinical
Conditions: human, in vivo, AUC0-inf, GM
Experimental: This was a Phase 1, open-label, one-sequence crossover, drug-interaction study to evaluate and compare the PK of repaglinide when administered alone and concomitantly with OPC (micronized). Subjects received a single dose of repaglinide 0.5 mg on Days 1 and 15 at approximately 0800 hours. In addition, subjects received OPC 50 mg once daily on Days 2 through 15 at approximately 0800 hours. […] PK parameters for OPC and its metabolites and repaglinide were calculated using non-compartmental methods. […]
measured_parameter: AUC(0-inf) (ng·h/mL)
Answers are plain numbers, in ng·h/mL.

For reference, reported AUC(0-inf) for CCOc1cc(CC(=O)N[C@@H](CC(C)C)c2ccccc2N2CCCCC2)ccc1C(=O)O [Repaglinide, repaglinide] stands at 11.6

---

Assay: clinical
Details: human, in vivo
measured_parameter: Tmax (min)
Numbers only, in min.

For reference, reported Tmax for CCOc1cc(CC(=O)N[C@@H](CC(C)C)c2ccccc2N2CCCCC2)ccc1C(=O)O [Repaglinide, repaglinide] stands at 30

---

Assay: clinical
Settings: human, in vivo, AUC0-t, GM
measured_parameter: AUC(0-t) (ng·h/mL)
Answers are plain numbers, in ng·h/mL.

For reference, reported AUC(0-t) for CCOc1cc(CC(=O)N[C@@H](CC(C)C)c2ccccc2N2CCCCC2)ccc1C(=O)O [Repaglinide, repaglinide] stands at 10.9
